method summary: qHTS for Inhibitors of the Functional Ribonucleoprotein Complex (vRNP) of Lymphocytic Choriomeningitis Arenaviruses (LCMV): LCMV Confirmatory Screen - GLuc reporter signal
particulars: LCMV minigenome vRNP, Gaussia luciferase reporter; series mostly up to 53.9 µM
Inconclusive results are not listed. Calls of active or inactive are those of the source. The call rests on the fitted dose curve.
value kind: Potency

CC(=O)[C@H]1CC[C@H]2[C@@H]3CCC4=CC(=O)CC[C@]4(C)[C@H]3CC[C@]12C
24.3 µM (active)
CC[C@@]1([C@@H]2O[C@@H]([C@H]3O[C@@](O)(CO)[C@H](C)C[C@H]3C)C[C@H]2C)CC[C@H]([C@]2(C)CC[C@]3(C[C@H](O)[C@@H](C)[C@@H]([C@@H](C)[C@@H](OC)[C@H](C)C(=O)O)O3)O2)O1
0.168 µM (active)

Next compound, please.
## Input I have this compound here, Cn1cc(-c2ccncc2)c(-c2ccc(OCc3ccc4ccccc4n3)cc2)n1 , and I need its recorded Potency.
## Output 24.3 µM (active)
